molecular target: human recombinant PDE10 enzyme (PDE10A) (Homo sapiens, UniProt Q9Y233); test: PDE10 scintillation proximity assay (SPA), inhibition of human recombinant PDE10 enzyme activity; conditions: geometric mean of 2-4 determinations unless otherwise indicated (b: ≧5 determinations; c: single determination)
pIC50: −log10 of the molar value.
reported endpoint: pIC50

# count of solved cases: 3
compound: Cc1nc([C@H]2CCOC2)c2c(N3CCn4ncc(C(F)(F)F)c4C3)ncnn12 [Example 50]
reported endpoint: pIC50
assay result: 8.49
//
compound: Cc1nc([C@@H]2CCOC2)c2c(N3CCc4nn(C5CC5)cc4C3)ncnn12 [Example 11]
reported endpoint: pIC50
assay result: 9.58
//
compound: Cc1nc(-c2ccccc2F)c2c(N3CCc4cnn(CC5CCC5)c4C3)ncnn12 [Example 175]
reported endpoint: pIC50
assay result: 8.71

a = COc1cnc2c(c1)CN(c1ncnn3c(C)nc([C@@H]4CCOC4)c13)CC2 [Example 29]
b = Cc1nc(-c2ccccc2F)c2c(N3CCc4cc(C5CC5)ncc4C3)ncnn12 [Example 162]
Returns: the argument ( a or b ) having the larger pIC50. Provide the label of your selected option as the answer.
a

1 = CNc1ccc2c(n1)CCN(c1ncnn3c(C)nc([C@@H]4CCOC4)c13)C2 [Example 152]
2 = Cc1ccc2c(n1)CN(c1ncnn3c(C)nc([C@@H]4CCOC4)c13)CC2 [Example 72]
Hi! Which is lower in terms of pIC50, the first one 1 or the second one 2 ? Provide the label of your selected option as the answer.
2
(2: 9.27, 1: 9.48)

P = Cc1nc([C@@H]2CCOC2)c2c(N3CCc4cnn(CC5CCC5)c4C3)ncnn12 [Example 174]
Q = Cc1nc(-c2ccccc2F)c2c(N3CCc4nc(C5CC5)nc(C(F)(F)F)c4C3)ncnn12 [Example 90]
Hi! Which is lower in terms of pIC50, the first one P or the second one Q ? Provide the label of your selected option as the answer.
Q
(Q: 8.34, P: 9.46)

---

molecular target: rat PDE10 enzyme (Rattus norvegicus (Rat)); assay: PDE10 scintillation proximity assay (SPA), inhibition of rat PDE10 enzyme activity; format: biochemical; conditions: geometric mean of 2-4 determinations unless otherwise indicated (b: ≧5 determinations; c: single determination)
Sequence (Q9QYJ6 24-794): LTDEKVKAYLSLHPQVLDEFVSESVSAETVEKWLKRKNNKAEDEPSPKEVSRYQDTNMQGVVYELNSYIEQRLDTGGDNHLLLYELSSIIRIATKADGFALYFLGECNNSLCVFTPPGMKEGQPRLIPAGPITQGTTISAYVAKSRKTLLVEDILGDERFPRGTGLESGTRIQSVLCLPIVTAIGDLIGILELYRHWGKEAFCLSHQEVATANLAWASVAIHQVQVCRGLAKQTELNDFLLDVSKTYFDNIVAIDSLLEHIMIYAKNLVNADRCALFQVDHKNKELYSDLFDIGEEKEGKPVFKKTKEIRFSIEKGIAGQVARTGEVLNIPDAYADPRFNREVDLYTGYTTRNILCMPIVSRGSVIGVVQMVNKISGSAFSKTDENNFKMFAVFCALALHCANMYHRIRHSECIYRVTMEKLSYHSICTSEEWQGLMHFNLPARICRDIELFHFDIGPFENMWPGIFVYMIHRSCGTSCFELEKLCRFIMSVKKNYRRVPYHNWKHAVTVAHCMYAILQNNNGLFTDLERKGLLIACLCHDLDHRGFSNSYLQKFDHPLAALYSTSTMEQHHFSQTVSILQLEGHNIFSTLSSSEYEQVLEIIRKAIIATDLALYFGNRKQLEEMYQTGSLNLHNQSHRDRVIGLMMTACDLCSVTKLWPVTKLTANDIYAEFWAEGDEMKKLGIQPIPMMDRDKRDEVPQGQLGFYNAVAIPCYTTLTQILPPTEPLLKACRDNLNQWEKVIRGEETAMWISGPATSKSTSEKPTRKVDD
pIC50: −log10 of the molar value.
reported endpoint: pIC50

# count of solved cases: 3
compound smiles: CCc1c2c(nn1C)CCN(c1ncnn3c(C)nc(-c4ccc(F)cc4Cl)c13)C2
reported endpoint: pIC50
assay result: 9.63

compound smiles: Cc1nc(-c2ccccc2F)c2c(N3CCc4cnn(CC5CCC5)c4C3)ncnn12
reported endpoint: pIC50
assay result: 9.06

compound smiles: Cc1nc(CC(C)C)c2c(N3CCc4ncccc4C3)ncnn12
reported endpoint: pIC50
assay result: 8.04

A = Cc1nn(C)c2c1CN(c1ncnn3c(C)nc(-c4ccc(F)cc4Cl)c13)CC2
B = Cc1nc([C@H]2CCOC2)c2c(N3CCc4ncncc4C3)ncnn12
Returns: the argument ( A or B ) having the larger pIC50. Provide the label of your selected option as the answer.
A

I = Cc1c2c(nn1C)CCN(c1ncnn3c(C)nc([C@@H]4CCOC4)c13)C2
II = Cc1nn(C)c2c1CN(c1ncnn3c(C)nc(-c4ccccc4F)c13)CC2
Hi! Which is lower in terms of pIC50, the first one I or the second one II ? Provide the label of your selected option as the answer.
II
(II: 9.08, I: 9.55)

1 = Cc1ccccc1-c1nc(C)n2ncnc(N3CCc4c(c(C(C)C)nn4C)C3)c12
2 = Cc1nc([C@@H]2CCOC2)c2c(N3CCc4nc(C5CC5)nc(O)c4C3)ncnn12
Hi! Which is lower in terms of pIC50, the first one 1 or the second one 2 ? Provide the label of your selected option as the answer.
1
